# System: H3255
# experiment description: relative viability (nuclei count vs DMSO), 5 days (fraction); higher = more cells survive
# assay context: first compound 0.003162 µM
The following compounds are listed with their measured relative viability values.
reported property: relative viability

{"compound": "Cc1cn(-c2cc(NC(=O)c3ccc(C)c(Nc4nccc(-c5cccnc5)n4)c3)cc(C(F)(F)F)c2)cn1 [Nilotinib] + COc1cc2c(Oc3ccc(NC(=O)C4(C(=O)Nc5ccc(F)cc5)CC4)cc3F)ccnc2cc1OCCCN1CCOCC1 [Foretinib] (partner 0.25 µM)", "assay system": "H3255", "recorded value": 1.06}
{"compound": "Cc1cn(-c2cc(NC(=O)c3ccc(C)c(Nc4nccc(-c5cccnc5)n4)c3)cc(C(F)(F)F)c2)cn1 [Nilotinib] + CC(C)C[C@H](NC(=O)[C@H](Cc1ccccc1)NC(=O)c1cnccn1)B(O)O [Bortezomib] (partner 0.002 µM)", "assay system": "H3255", "recorded value": 0.656}
{"compound": "Cc1cn(-c2cc(NC(=O)c3ccc(C)c(Nc4nccc(-c5cccnc5)n4)c3)cc(C(F)(F)F)c2)cn1 [Nilotinib] + CC(=O)Nc1cccc(-n2c(=O)n(C3CC3)c(=O)c3c(Nc4ccc(I)cc4F)n(C)c(=O)c(C)c32)c1 [Trametinib] (partner 0.02 µM)", "assay system": "H3255", "recorded value": 0.582}
{"compound": "Cc1cn(-c2cc(NC(=O)c3ccc(C)c(Nc4nccc(-c5cccnc5)n4)c3)cc(C(F)(F)F)c2)cn1 [Nilotinib] + Cc1nc(NC(=O)N2CCC[C@H]2C(N)=O)sc1-c1ccnc(C(C)(C)C(F)(F)F)c1 [Alpelisib] (partner 2 µM)", "assay system": "H3255", "recorded value": 0.699}
